- SYSTEM_UNDER_TEST: His-GABARAP (human, UniProt O95166 1-117)
- Sequence (O95166 whole entry): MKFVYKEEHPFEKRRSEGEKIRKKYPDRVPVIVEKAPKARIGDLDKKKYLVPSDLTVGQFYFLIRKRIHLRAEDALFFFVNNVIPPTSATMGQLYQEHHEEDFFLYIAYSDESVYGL
- TEST: ITC; 0.6 mM peptide titrated into 0.06 mM His-LC3/GABARAP protein in 20 steps at 25 °C; 50 mM Tris pH 7.0, 25 mM NaCl; one-site binding model
- CONDITION_SET: both partners purified
Recorded measurements of pKd, one per entry
On this scale, pKd is minus log10 of a concentration expressed in M (mol/L).

pKd recorded for this binder, DEDPETSWILLN (source: synthetic peptide (GenScript)) [hEPG5-LIR2 peptide] , is 6.80

Continuing:
pKd recorded for this binder, GSGTWTLVDEG (human EPG5 residues 546-556, holding the LIR1 motif 550WTLV553; source: synthetic peptide (LifeTein)) [hEPG5-LIR1 peptide] , is 5.13

Provenance of the data: paper PMC7935953
